- target.entity: c-Myc template DNA (c-myc quadruplex)
- protocol.summary: Quadruplex binding / stop assay (Taq polymerase arrest, capillary electrophoresis)
- assay.conditions: read-out: Stop Data c-Myc μM; concentration at which 50% of the DNA was arrested (arrested:full-length 1:1)
measured.parameter: IC50 (µM)

Field: example entries. Status: answers known.
[
  {
    "molecule": "CN1CCCC1CCNC(=O)c1cn2c3c(c(NCCN4CCOCC4)c(F)cc3c1=O)Oc1cc3c(cc1-2)oc1ccccc13 (stereo not drawn) [compound 147]",
    "IC50 (µM)": 1.75
  },
  {
    "molecule": "CN(C)CCCCNC(=O)c1cn2c3c(c(N4CC[C@@H](NC(=O)CCN5CCCCC5)C4)c(F)cc3c1=O)Oc1cc3c(cc1-2)oc1ccccc13 [compound 507]",
    "IC50 (µM)": 0.375
  },
  {
    "molecule": "CN(C)CCCCNc1c(F)cc2c(=O)c(C(=O)Nc3ccc(N(C)C)cc3)cn3c2c1Oc1c-3ccc2ccccc12 [compound 76]",
    "IC50 (µM)": 2.5
  },
  {
    "molecule": "CC(C)(C)OC(=O)NC1CCN(c2c(F)cc3c(=O)c(C(=O)NCCc4cnc[nH]4)cn4c3c2Oc2cc3ccccc3cc2-4)C1 (stereo not drawn) [compound 181]",
    "IC50 (µM)": 1.75
  },
  {
    "molecule": "CN(C)CCCCNC(=O)c1cn2c3c(c(NCCCN4CCN(C)CC4)ccc3c1=O)Oc1cc3ccccc3cc1-2 [compound 456]",
    "IC50 (µM)": 0.75
  }
]

P: CN1CCCC1CCNc1c(F)cc2c(=O)c(C(=O)NCCN3CCOCC3)cn3c2c1Oc1cc2ccccc2cc1-3 (stereo not drawn) [compound 67]
Q: CN1CCCC1CCNC(=O)c1cn2c3c(c(NC4CCN(Cc5ccccc5)CC4)c(F)cc3c1=O)Oc1cc3ccccc3cc1-2 (stereo not drawn) [compound 258]
R: CN1CCC[C@H]1CCNC(=O)c1cn2c3c(c(N4CCC(c5cnccn5)C4)c(F)cc3c1=O)Oc1cc3ccccc3cc1-2 (stereo partly drawn) [compound 355]
S: CN1CCN(CCCNC(=O)c2cn3c4cc5c(cc4oc4c(N6CC[C@H](N)C6)c(F)cc(c2=O)c43)c(=O)c2ccccc25)CC1 [compound 520]
T: CN(C)CCCCNC(=O)c1cn2c3cc4c(cc3oc3c(NCCN5CCCC5)c(F)cc(c1=O)c32)c(=O)c1ccccc14 [compound 584]
List by increasing IC50. Reply with the labels, ordered as the question asks.
T, S, R, Q, P

I: N[C@H]1CCN(c2c(F)cc3c(=O)c(C(=O)NCCN4CCCC4)cn4c3c2Oc2ccccc2-4)C1 [compound 35]
II: O=C(CCN1CCCCC1)N[C@@H]1CCN(c2c(F)cc3c(=O)c(C(=O)NCCN4CCCC4)cn4c3c2Oc2cc3c(cc2-4)oc2ccccc23)C1 [compound 308]
III: CN1CCCC1CCNC(=O)c1cn2c3c(c(N4CCC(N)CC4)c(F)cc3c1=O)Oc1cc3ccccc3cc1-2 (stereo not drawn) [compound 281]
IV: CN1CCCC1CCNC(=O)c1cn2c3c(c(NCCCN(CCO)CCO)c(F)cc3c1=O)Oc1cc3ccccc3cc1-2 (stereo not drawn) [compound 534]
Please give the order of these molecules when sorted by IC50, largest value leading. Reply with the labels, ordered as the question asks.
I, III, II, IV

---

Listing of recorded pIC50 by entry.
- Test system: HeLa cells
- protocol.summary: MTS cell proliferation and/or cytotoxicity assay
- Assay type: cell-based, Human
- assay.conditions: Homo sapiens, HeLa, 72 h, concentration at which 50% of antiproliferative cell response is seen; 3 days incubation; read-out: MTS Data Hella
Please treat pIC50 as minus the base-10 logarithm of the molar concentration.

[
  {
    "compound": "CN1CCCC1CCNC(=O)c1cn2c3c(c(N4CCC(CCCC5CCNCC5)CC4)c(F)cc3c1=O)Oc1cc3ccccc3cc1-2 (stereo not shown)",
    "pIC50": 6.51
  },
  {
    "compound": "CN1CCN(CCCNC(=O)c2cn3c4cc5c(cc4oc4c(NCCN6CCCC6)c(F)cc(c2=O)c43)c(=O)c2ccccc25)CC1",
    "pIC50": 5.82
  },
  {
    "compound": "CN(C)CCCCNC(=O)c1cn2c3cc4c(cc3oc3c(N5CC[C@H](NC(=O)OC(C)(C)C)C5)c(F)cc(c1=O)c32)c(=O)c1ccccc14",
    "pIC50": 5.43
  },
  {
    "compound": "CN1CCCC1CCNC(=O)c1cn2c3c(c(N4CC[C@H](N)C4)c(F)cc3c1=O)Oc1cc3ccccc3cc1-2 (stereo partly shown)",
    "pIC50": 6.43
  },
  {
    "compound": "CN1CCCC1CCNC(=O)c1cn2c3c(c(N4CC[C@@H](N)C4)c(F)cc3c1=O)Oc1c-2ccc2ccccc12 (stereo partly shown)",
    "pIC50": 6.60
  },
  {
    "compound": "O=C(NCCCN1CCOCC1)c1cn2c3cc4c(cc3oc3c(NCCN5CCCC5)c(F)cc(c1=O)c32)c(=O)c1ccccc14",
    "pIC50": 5.40
  },
  {
    "compound": "CN(C)CCCCNC(=O)c1cn2c3c(c(N4CC[C@@H](NC(=O)CCN5CCN(C)CC5)C4)c(F)cc3c1=O)Oc1cc3c(cc1-2)oc1ccccc13",
    "pIC50": 5.07
  },
  {
    "compound": "CN1CCN(CCCNC(=O)c2cn3c4c(c(N5CC[C@@H](N)C5)c(F)cc4c2=O)Oc2cc4ccccc4cc2-3)CC1",
    "pIC50": 6.55
  }
]

# evaluate next
Lab note: need pIC50 with HeLa cells for entry "Nc1c(F)c(NCCCN2CCOCC2)c2c3c1c(=O)c(C(=O)NCCN1CCCC1)cn3-c1cc3ccccc3cc1O2" , please look it up.
5.66

---

- target.entity: c-Myc template DNA (c-myc quadruplex)
- protocol.summary: Quadruplex binding / stop assay (Taq polymerase arrest, capillary electrophoresis)
- assay.conditions: read-out: S DATA; Table 1D, stop assay data
measured.parameter: IC50 (nM)

Field: example entries. Status: answers known.
[
  {
    "compound": "CN(C)CCCCNc1ccc2c(=O)c(C(=O)NCCN3CCCC3)cn3c2c1Oc1cc2ccccc2cc1-3",
    "target.entity": "c-Myc template DNA (c-myc quadruplex)",
    "unit.info": "nM",
    "test.value": 1000
  },
  {
    "compound": "CN(C)CCCCNc1ccc2c(=O)c(C(=O)NCCC3CCCN3C)cn3c2c1Oc1cc2ccccc2cc1-3 (stereo not shown)",
    "target.entity": "c-Myc template DNA (c-myc quadruplex)",
    "unit.info": "nM",
    "test.value": 1750
  }
]

A: CN1CCN(CCCNC(=O)c2cn3c4c(c(N5CCC(N)C5)c(F)cc4c2=O)Oc2ccccc2-3)CC1 (stereo not shown)
B: CN(CCCNc1c(F)cc2c(=O)c(C(=O)NCCC3CCCN3C)cn3c2c1Oc1cc2ccccc2cc1-3)c1ccccc1 (stereo not shown)
# min-compare on IC50 between A and B // output: label of the selected item
A
(A: 750 nM, B: 1750 nM)

---

- Tested on: panel of cancer cell-lines
- protocol.summary: MTS cell survival assay, panel of cancer cell-lines
- Assay type: cell-based
- assay.conditions: Homo sapiens, 96 h; HCT-116 (Colorectal), 4 days, MTS
measured.parameter: IC50 (µM)
Please respond with the number in µM and leave the unit unwritten.

Fill in the blank: the reported IC50 of CN1CCCC1CCNC(=O)c1cn2c3c(c(N4CCC(c5cnccn5)C4)c(F)cc3c1=O)Oc1cc3ccccc3cc1-2 (stereo not shown) is ____.
3.3

---

- Tested on: HeLa cells
- protocol.summary: MTS cell proliferation and/or cytotoxicity assay
- Format: cell-based, Human
- assay.conditions: Homo sapiens, HeLa, 72 h, concentration at which 50% of antiproliferative cell response is seen; 3 days incubation; read-out: MTS Data Hella
measured.parameter: IC50 (nM)
Please respond with the number in nM and leave the unit unwritten.

[
  {
    "molecule": "O=C(CN1CCCCC1)N[C@@H]1CCN(c2c(F)cc3c(=O)c(C(=O)NCCN4CCCC4)cn4c3c2Oc2cc3c(cc2-4)oc2ccccc23)C1",
    "target.entity": "HeLa cells",
    "IC50 [nM]": 3400
  },
  {
    "molecule": "O=C(NCCN1CCCC1)c1cn2c3c(c(N4CC5CCCNC5C4)c(F)cc3c1=O)Oc1cc3ccccc3cc1-2 (stereo not shown)",
    "target.entity": "HeLa cells",
    "IC50 [nM]": 150
  },
  {
    "molecule": "N[C@@H]1CCN(c2c(F)cc3c(=O)c(C(=O)NCCC4CCCN4)cn4c3c2Oc2cc3c(cc2-4)oc2ccccc23)C1 (stereo partly shown)",
    "target.entity": "HeLa cells",
    "IC50 [nM]": 310
  }
]

Lab note: need IC50 with HeLa cells for entry CCN(CC)CCCC(C)NC(=O)c1cn2c3c(c(N4CCC(N)C4)c(F)cc3c1=O)Oc1cc3ccccc3cc1-2 (stereo not shown) , please look it up.
230
